# EC50 annotations
# Tested on: Human immunodeficiency virus 1
# Test: Antiviral activity against HIV1 3B infected in MT4 cells assessed as cell viability after 5 days by MTT assay
# Assay type: functional, organism-based
# Assay conditions: Human immunodeficiency virus 1, 3B, MT4, 120 h
Form entry: value (µM) — number only.

> print(dat)
                                        mol                    study.system  recorded.result
1  C=C(C)[C@]12C[C@@H](C)[C@@]34O[C@](Cc5ccccc5)(O[C@@H]1[C@@H]3C=C(COC(=O)Cc1ccc(O)c(OC)c1)C[C@]1(O)C(=O)C(C)=C[C@@H]41)O2  Human immunodeficiency virus 1               26

-- ask Give the reported EC50 for `CC1=C[C@]23C(=O)[C@@H](C=C(COC(=O)c4ccccc4)[C@@H](O)[C@]2(O)[C@H]1OC(=O)c1ccccc1)[C@H]1[C@@H](C[C@H]3C)C1(C)C` (system: Human immunodeficiency virus 1).
-- reply 0.027
